The reported measurements were obtained from ChEMBL document CHEMBL5291721.

- targetDesc: Alpha-2C adrenergic receptor (Homo sapiens, UniProt P18825); further: assay procedure not described here
- Sequence (P18825 whole entry): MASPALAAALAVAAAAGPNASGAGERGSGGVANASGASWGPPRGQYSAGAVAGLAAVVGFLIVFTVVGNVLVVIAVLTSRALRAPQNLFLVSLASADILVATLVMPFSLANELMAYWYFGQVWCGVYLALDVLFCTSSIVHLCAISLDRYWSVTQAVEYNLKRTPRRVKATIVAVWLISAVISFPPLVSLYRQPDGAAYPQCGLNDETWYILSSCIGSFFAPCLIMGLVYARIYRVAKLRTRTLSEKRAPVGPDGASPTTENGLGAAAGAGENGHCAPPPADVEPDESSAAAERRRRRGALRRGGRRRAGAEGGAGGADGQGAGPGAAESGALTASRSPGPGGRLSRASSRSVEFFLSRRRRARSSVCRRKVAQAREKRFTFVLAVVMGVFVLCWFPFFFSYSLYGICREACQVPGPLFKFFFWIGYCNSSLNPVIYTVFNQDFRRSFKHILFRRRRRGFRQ
- Assay type: functional

compound	AC50
CC[N+]1(C)CCCC(OC(=O)C(O)(c2ccccc2)c2ccccc2)C1 (centres undefined) [PIPENZOLATE]	> 30 µM
Cc1ccc(NC(=O)C2(c3ccc4c(c3)OC(F)(F)O4)CC2)nc1-c1cccc(C(=O)O)c1	> 30 µM
C=C(C)[C@@H]1CCC(C)=C[C@H]1c1c(O)cc(CCCCC)cc1O	> 30 µM
O=C(CCCN1CCC2(CC1)C(=O)NCN2c1ccccc1)c1ccc(F)cc1	0.369 µM
CN(C)c1cc(NC(=O)CNC(C)(C)C)c(O)c2c1C[C@H]1C[C@H]3[C@H](N(C)C)C(O)=C(C(N)=O)C(=O)[C@@]3(O)C(O)=C1C2=O	> 30 µM
CN1c2ccccc2C(NCCCCCCC(=O)O)c2ccc(Cl)cc2S1(=O)=O (centres undefined)	> 30 µM
Nc1ccc(C(=O)O)c(O)c1	> 30 µM
COC(=O)N[C@@H](C)CNc1nccc(-c2cn(C(C)C)nc2-c2cc(Cl)cc(NS(C)(=O)=O)c2F)n1	> 30 µM
O=C(O)c1ccccc1Nc1cccc(C(F)(F)F)c1	> 10 µM

----------
- targetDesc: 5-hydroxytryptamine receptor 2B (Homo sapiens, UniProt P41595); further: assay procedure not described here
- Sequence (P41595 whole entry): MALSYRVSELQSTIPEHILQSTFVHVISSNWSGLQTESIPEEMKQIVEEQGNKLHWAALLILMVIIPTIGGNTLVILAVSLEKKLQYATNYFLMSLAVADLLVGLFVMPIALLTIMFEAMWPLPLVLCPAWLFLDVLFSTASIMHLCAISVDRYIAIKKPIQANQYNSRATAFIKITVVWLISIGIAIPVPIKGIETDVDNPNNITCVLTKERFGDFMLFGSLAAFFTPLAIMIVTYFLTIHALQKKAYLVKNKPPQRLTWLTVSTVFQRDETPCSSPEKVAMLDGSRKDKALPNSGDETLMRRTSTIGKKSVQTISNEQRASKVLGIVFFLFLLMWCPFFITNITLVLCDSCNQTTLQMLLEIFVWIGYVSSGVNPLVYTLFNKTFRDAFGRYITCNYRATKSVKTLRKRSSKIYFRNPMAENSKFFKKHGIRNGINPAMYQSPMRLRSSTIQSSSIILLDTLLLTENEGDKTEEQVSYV
- Assay type: functional, cell-based
propertyName: AC50

compound	propertyName	observedMeasurement
CCCN(CCC)CCc1cccc2c1CC(=O)N2	AC50	2.76 µM
CCN(CC)C(=O)C1(c2ccccc2)CC1CN (centres undefined)	AC50	> 30 µM
CC1(C)O[C@@H]2[C@@H](CO[C@@]3(COS(N)(=O)=O)OC(C)(C)O[C@@H]23)O1 [TOPIRAMATE]	AC50	> 10 µM
CC(=O)S[C@@H]1CC2=CC(=O)CC[C@]2(C)[C@H]2CC[C@@]3(C)[C@@H](CC[C@@]34CCC(=O)O4)[C@H]12	AC50	> 30 µM
COC1=C(OC)C(=O)C(CCCCCCCCCCO)=C(C)C1=O	AC50	> 10 µM
Oc1c(I)cc(Cl)c2cccnc12	AC50	> 30 µM
O=C(O)c1ccccc1Nc1cccc(C(F)(F)F)c1	AC50	> 30 µM
CC(=O)Nc1c(I)c(C(=O)N[C@H]2C(O)O[C@H](CO)[C@@H](O)[C@@H]2O)c(I)c(N(C)C(C)=O)c1I (some centres undefined) [METRIZAMIDE]	AC50	> 10 µM
CCN(CC)CC(=O)Oc1ccc(NC(C)=O)cc1	AC50	> 30 µM
